Tested on: human platelets
Test: In vitro inhibition of ADP-induced human platelet aggregation in platelet-rich plasma (aggregometer method of Born)
Assay type: cell-based
Conditions: human PRP, 0.5 mcg/mL ADP, about three minutes preincubation
Class membership depends on IC50 alone; the intervals are lower = under 0.2 µg/mL, middle = from 0.2 µg/mL up to 7 µg/mL, upper = 7 µg/mL and over

compound | class-name
CN(C)C(=O)/C(=C\c1cccc(OCC(=O)O)c1)c1nc(-c2ccccc2)c(-c2ccccc2)o1 | middle
CCOC(=O)C(Cc1cccc(OCC(=O)OC)c1)c1nc(-c2ccccc2)c(-c2ccccc2)o1 (stereo not drawn) | middle
CNC(=O)C(Cc1cccc(OCC(=O)OC)c1)c1nc(-c2ccccc2)c(-c2ccccc2)o1 (stereo not drawn) | middle
O=C(O)COc1cccc(C=C(C(=O)O)c2nc(-c3ccccc3)c(-c3ccccc3)o2)c1 | upper
CC(C)OC(=O)C(Cc1cccc(OCC(=O)OC(C)(C)C)c1)c1nc(-c2ccccc2)c(-c2ccccc2)o1 (stereo not drawn) | upper
COC(=O)C(Cc1cccc(OCC(=O)O)c1)c1nc(-c2ccccc2)c(-c2ccccc2)o1 (stereo not drawn) [Compound 10c] | lower
N#C/C(=C\c1cccc(OCC(=O)O)c1)c1nc(-c2ccccc2)c(-c2ccccc2)o1 | lower
CC(C)(C)OC(=O)COc1cccc(CC(C(N)=O)c2nc(-c3ccccc3)c(-c3ccccc3)o2)c1 (stereo not drawn) | upper
COC(=O)COc1cccc(CC(C(=O)N(C)C)c2nc(-c3ccccc3)c(-c3ccccc3)o2)c1 (stereo not drawn) | upper
CCOC(=O)C(Cc1cccc(OCC(=O)O)c1)c1nc(-c2ccccc2)c(-c2ccccc2)o1 (stereo not drawn) [Compound 10a] | lower
COC(=O)COc1cccc(CC(C(N)=O)c2nc(-c3ccccc3)c(-c3ccccc3)o2)c1 (stereo not drawn) | upper
NC(=O)C(Cc1cccc(OCC(=O)O)c1)c1nc(-c2ccccc2)c(-c2ccccc2)o1 (stereo not drawn) [Compound 10e] | middle

---

Test system: human platelets
Test: In vitro inhibition of ADP-induced human platelet aggregation in platelet-rich plasma (aggregometer method of Born)
Type: cell-based
Details: human PRP, 0.5 mcg/mL ADP, about three minutes preincubation

molecule | lt-gt-eq | IC50, µg/mL
CNC(=O)C(Cc1cccc(OCC(=O)O)c1)c1nc(-c2ccccc2)c(-c2ccccc2)o1 (stereo not shown) [Compound 10f] | = | 0.32
CCOC(=O)/C(=C/c1cccc(OCC(=O)OC)c1)c1nc(-c2ccccc2)c(-c2ccccc2)o1 | = | 1
COC(=O)COc1cccc(C=C(C(N)=O)c2nc(-c3ccccc3)c(-c3ccccc3)o2)c1 | = | 2.5
COC(=O)COc1cccc(/C=C(\C(=O)N(C)C)c2nc(-c3ccccc3)c(-c3ccccc3)o2)c1 | > | 32

---

Each entry below lists one item and its recorded IC50 value.
Test system: human platelets
Experiment: In vitro inhibition of ADP-induced human platelet aggregation in platelet-rich plasma (aggregometer method of Born)
Assay type: cell-based
Conditions: human PRP, 0.5 mcg/mL ADP, about three minutes preincubation

molecule | tested-system | lt-gt-eq | IC50 [µg/mL]
COC(=O)COc1cccc(CC(C#N)c2nc(-c3ccccc3)c(-c3ccccc3)o2)c1 (stereo not shown) [Compound 18] | human platelets | = | 0.36
CN(C)C(=O)C(Cc1cccc(OCC(=O)O)c1)c1nc(-c2ccccc2)c(-c2ccccc2)o1 (stereo not shown) [Compound 10g] | human platelets | = | 1.7
COC(=O)COc1cccc(CC(C(=O)OC)c2nc(-c3ccccc3)c(-c3ccccc3)o2)c1 (stereo not shown) [Compound 9d] | human platelets | = | 0.6
CC(C)OC(=O)C(=Cc1cccc(OCC(=O)OC(C)(C)C)c1)c1nc(-c2ccccc2)c(-c2ccccc2)o1 [Compound 7e] | human platelets | > | 32
COC(=O)COc1cccc(C=C(C(=O)OC)c2nc(-c3ccccc3)c(-c3ccccc3)o2)c1 [Compound 7d] | human platelets | = | 0.5
CCOC(=O)C(Cc1cccc(OCC(=O)OC(C)(C)C)c1)c1nc(-c2ccccc2)c(-c2ccccc2)o1 (stereo not shown) [Compound 9a] | human platelets | > | 32
CCOC(=O)C(=Cc1cccc(OCC(=O)O)c1)c1nc(-c2ccccc2)c(-c2ccccc2)o1 [Compound 8a] | human platelets | = | 0.17

Values compiled from patent US5187188A.
